Reference for the values: patent US20080194616A1

Please provide measured melting point for the entries that follow.
Where a name gives a salt, the structure may show the parent alone.

Here is how some molecules turned out for melting point.
MOLECULE | REPORTED_VALUE
CCCCc1nc2ccccn2c(=O)c1-c1ccc(OS(=O)(=O)C(F)(F)F)cc1 (as salt: methanesulfonate) | 106 to 108 °C
CCCCc1nc2ccccn2c(=O)c1-c1ccc(NC[C@@H]2CCCO2)cc1 (as salt: hydrochloride) | 155 to 170 °C

Request: Look up melting point for this molecule: CCCCc1nc2ccccn2c(=O)c1-c1ccc(OC)c(Cl)c1
Response: 113 to 115 °C

###

Please provide measured melting point for the entries that follow.
Structures can show the parent of a compound that is named as a salt.

COMPOUND | REPORTED_VALUE
CCCCc1nc2ccccn2c(=O)c1-c1ccc(N[C@@H]2CCNC2)cc1.Cl | 171 to 174 °C
CCCCc1nc2ccccn2c(=O)c1-c1ccc(N[C@@H]2CCNC2)c(F)c1 (as salt: hydrochloride) | 143 to 155 °C
CCCCc1nc2ccccn2c(=O)c1-c1ccc(N[C@@H]2CCN(C)C2)cc1 | 141 to 143 °C
COc1nc2ccccn2c(=O)c1-c1ccc(NC2CCNC2)cc1 (stereo not shown) (as salt: trifluoroacetate) | 56 to 58 °C
CCCCc1nc2ccccn2c(=O)c1-c1ccc(N(C)C2CCCNC2)cc1 (stereo not shown) (as salt: hydrochloride) | 170 to 185 °C

Provide reported melting point for each item, in the same order as listed.
1. CCCCc1nc2ccccn2c(=O)c1-c1ccc(NC2CCCNC2)cc1 (stereo not shown) (as salt: hydrochloride)
2. CCCCc1nc2ccccn2c(=O)c1-c1ccc(NC(=O)OC(C)(C)C)cc1
3. COc1nc2ccccn2c(=O)c1-c1ccc(Cl)cc1
4. CCCCc1nc2ccccn2c(=O)c1-c1cccc(NC2CCNC2)c1 (stereo not shown) (as salt: hydrochloride)
5. CC(C)Nc1nc2ccccn2c(=O)c1-c1ccc(N[C@@H]2CCN(C(=O)OC(C)(C)C)C2)cc1

Response:
178 to 185 °C
132 to 135 °C
149 to 151 °C
> 170 °C
208 to 211 °C
